Taken from PubChem BioAssay (NCI).

Tested on: 786-0 renal
MEASUREMENT_NOTES: NCI tumour cell line growth inhibition, 48 h
QUANTITY_KIND: TGI

Worked set:
compound="CCOC(=O)CNC(=O)C(C)NC(=O)C(NC(=O)CC(c1ncc[nH]1)c1ncc[nH]1)C(C)CC (stereo not drawn)" quantity_kind=TGI result="> 100 µM"
compound=Cc1ccnc2[nH]c(-c3ccccc3)cc(=O)c12 quantity_kind=TGI result="> 100 µM"

We next turn to a different compound, shown below.
I'd like to know its TGI. The compound in question is CN1CC(C(=O)C2C(=O)c3ccccc3C2=O)C(=O)C(=O)C(C(=O)C2C(=O)c3ccccc3C2=O)C1 (stereo not drawn)
> 100 µM

----------
Tested on: HCC-2998 colon
MEASUREMENT_NOTES: NCI tumour cell line growth inhibition, 48 h
QUANTITY_KIND: TGI

Reference set (3 entries):
molecule=NCCNc1cccc2ccccc12 target_desc="HCC-2998 colon" quantity_kind=TGI result="> 100 µM"
molecule=C=CCNC(=O)NC1=CSC2=NC(=O)C3(NN12)c1ccccc1-c1ccccc13 target_desc="HCC-2998 colon" quantity_kind=TGI result="> 10 µM"
molecule=COc1cc(-c2nc3sc4c(c3c(=O)[nH]2)CCCCCC4)cc(OC)c1OC target_desc="HCC-2998 colon" quantity_kind=TGI result="> 33.2 µM"

Okay, now this molecule:
# query: TGI of entry O=C(O)c1ccc(N/C=C2\C(=O)c3ccccc3OC2O)cc1O (centres undefined)
45.4 µg/mL

----------
Tested on: OVCAR-4 ovarian
MEASUREMENT_NOTES: NCI tumour cell line growth inhibition, 48 h
QUANTITY_KIND: TGI

Illustrative cases are given below, each with its answer.
compound="CC(=O)OC1CC2(O)C3CCC4CC(O)CCC4(C)C3CCC2(C)C1C1=CC(=O)OC1 (centres undefined)" quantity_kind=TGI result="0.19 µM"
compound="O=C(C(=O)N1CC2C=CC1CC2)c1c[nH]c2ccccc12 (centres undefined)" quantity_kind=TGI result="> 100 µM"

Each compound below has a recorded value; state its TGI.
1. C(=C\c1ccccc1)/C=N/c1nc2cc3sc(/N=C/C=C/c4ccccc4)nc3cc2s1
2. O=c1c2cc(I)ccc2nc(Sc2ncccc2[N+](=O)[O-])n1Cc1ccccc1

1: > 100 µM; 2: > 100 µM

----------
Test system: NCI/ADR-RES ovarian
MEASUREMENT_NOTES: NCI tumour cell line growth inhibition, 48 h
QUANTITY_KIND: TGI (µM)
Answers are plain numbers, in µM.

Some molecules with known TGI results, for comparison:
smi=C=C1C(=O)O[C@H]2[C@H]1CC/C(COC(=O)CSCC(=O)OC/C1=C/CC[C@@]3(C)O[C@H]3[C@H]3OC(=O)C(=C)[C@@H]3CC1)=C\CC[C@@]1(C)O[C@@H]21 numeric_readout=40.2
smi=O=C(Nc1ccccc1O)c1ccc(Oc2cccc(C(=O)Nc3ccccc3O)c2)cc1 numeric_readout=6.7
smi=CCOC(=O)/C=C(/C(=O)OCC)n1cc(C)c(=O)n(Cc2cn(COCCOC(C)=O)nn2)c1=O numeric_readout=67.9

For each listed entry, give its TGI.
1. Cc1cc(-c2nc3ccccc3s2)ccc1NC(=O)[C@H](C)N
2. CC(=O)O/N=C1/C(c2c(O)[nH]c3cc(Br)ccc23)=Nc2ccccc21
3. CN1CCN(Cc2ccc(NC(=O)c3ccc(C#Cc4c(N)ncc5ccc(F)cc45)cc3)cc2C(F)(F)F)CC1

1. 38.5
2. 4.59
3. 2.32

I'd like to know its TGI. The molecule in question is `CCCCc1ccc(Nc2ncc3[nH]cnc3n2)cc1`
46

----------
Field: TGI. Provide a value for each of the molecules that follow.
System: OVCAR-5 ovarian
MEASUREMENT_NOTES: NCI tumour cell line growth inhibition, 48 h
Where a SMILES comes first, the peptide text is derived from it. The star is where a group is joined. Cbz = O=C(OCc1ccccc1)*; OBn = c1ccc(CO*)cc1

Here's what some known entries look like.
molecule="Cc1nc2ccc(S(=O)(=O)O)cc2c(=O)n1-c1ccc(C(=O)NN2C(=O)C(Cl)C2c2ccccc2O)cc1 (stereo unspecified)" result="> 100 µM"
molecule=CCCCCCCCCCCCSC(=N)N result="25.3 µM"
molecule="CC(C)c1ccc(/C=C2\\CSCC3=C2NC(=S)NC3c2ccc(C(C)C)cc2)cc1 (stereo unspecified)" result="> 100 µM"

List TGI for every entry below, keeping the order given.
1. CCN(c1ccc(Br)cc1)c1c(Br)c(=O)nc2ccccn12
2. O=C(C(=O)N1CC2C=CC1CC2)c1c[nH]c2ccccc12 (stereo unspecified)
3. COC(=O)C(Cc1ccc(O)cc1)NC(=O)C(CC(=O)OCc1ccccc1)NC(=O)OCc1ccccc1 (stereo unspecified) (Cbz-Asp(OBn)-Tyr-OMe; configuration not given here)
4. COc1ccccc1C#Cc1ccccc1C#CCCCCCC#Cc1ccccc1C#Cc1ccccc1OC
5. CCCCOC(=O)NC(=O)c1cn(CCSCCOC(=O)NCCCCCCNC(=O)OCCSCCn2cc(C(=O)NC(=O)OCCCC)c(=O)[nH]c2=O)c(=O)[nH]c1=O
6. CCOC(=O)C(=Cc1ccc(C(=O)OC)cc1)C(=O)OCC
7. O=C1CN(C(=O)c2ccccc2)Cc2[nH]c3ccccc3c21
8. O=S1(=O)c2ccccc2C(=NO)c2ccccc21

> 100 µM
> 100 µM
43.2 µM
> 100 µM
> 100 µM
21.9 µM
> 100 µM
> 100 µM

----------
System: UACC-62 melanoma
MEASUREMENT_NOTES: NCI tumour cell line growth inhibition, 48 h
QUANTITY_KIND: TGI (µM)
Give bare numbers, in µM.

compound="COc1cc2c[n+](C)c3c4ccccc4ccc3c2cc1OC (tested in a mixture with another compound)" unit_of_measure=µM numeric_readout=20.3
compound=Cc1c2c[n+](C(C)C)ccc2c(C)c2c1[nH]c1ccccc12 unit_of_measure=µM numeric_readout=15

Now take the following compound into account.
Suppose we examine the compound COc1cccc2c1C(=O)c1c(O)c3c(c(O)c1C2=O)C[C@@](O)(C(=O)CO)C[C@@H]3OC1C[C@H](N)[C@H](O)[C@H](C)O1 (some centres not stated) ; what TGI value has been reported?
0.117

----------
Test system: SK-MEL-2 melanoma
MEASUREMENT_NOTES: NCI tumour cell line growth inhibition, 48 h; in the data active means GI50 below about 0.43 µM; inactive means the rest
Entry note: the call must match one of active, inactive

compound=CN(C)C(=O)c1cc2cnc(Nc3ccc(-c4csc5c(=O)cc(N6CCOCC6)oc45)cc3)nc2n1C1CCCC1 discrete_label=active
compound="CO[C@@H]1CC(=O)C2(CC(=O)O[C@@H]2/C=C(\\C)CCC=C(C)C)C[C@@H]1O (some centres undefined)" discrete_label=inactive

Fill in: this test's call for `O=C(Nc1ccccc1O)c1ccc(Oc2cccc(C(=O)Nc3ccccc3O)c2)cc1` is ___
inactive

Also need `COc1ccc2c(c1)C(=O)/C(=C/c1ncc([N+](=O)[O-])n1C)O2` , thanks.
active

Another compound to check: `O=C(O)c1cc2cc(OCc3ccccc3)c(OCc3ccccc3)cc2[nH]1`
inactive

Also check C#Cc1c(C(N)=O)ncn1C1OC(COP(=O)(OCc2ccc([N+](=O)[O-])o2)N(C)CCCCCl)C(O)C1O (centres undefined)
inactive

Then this compound: `O=C(CCl)N1c2ccccc2Sc2ccc3ccccc3c21`
inactive

----------
System: MALME-3M melanoma
MEASUREMENT_NOTES: NCI tumour cell line growth inhibition, 48 h
QUANTITY_KIND: TGI

molecule=C(=C\c1ccccc1)/C=N/c1nc2cc3sc(/N=C/C=C/c4ccccc4)nc3cc2s1 quantity_kind=TGI result="> 100 µM"
molecule=CC(=O)CCCCO quantity_kind=TGI result="> 100 µM"
molecule=CCN1c2ccccc2C(Cl)(c2ccc(N(C)C)cc2)c2ccccc21 quantity_kind=TGI result="12.4 µM"
molecule=CCc1ccc2[nH]c(O)c(-c3[nH]c4ccccc4c3N=O)c2c1 quantity_kind=TGI result="21.6 µM"
molecule=c1cn2cc(-c3ccc4cn[nH]c4c3)nc(Nc3ccc(N4CCOCC4)cc3)c2n1 quantity_kind=TGI result="27.3 µM"

For every record below, what is its TGI?
1. Cc1[nH]c2ccccc2c1C=Nc1ccc(N=Cc2c(C)[nH]c3ccccc23)cc1
2. Cc1ccc2c(O)c(O)cc(NC(C)CCCN)c2n1 (stereo not drawn)
3. O=C1NC2(CCCCC2)C2CCCCCC12 (stereo not drawn)
4. COc1cc(/C=C2\CN(C)C/C(=C\c3cc(CN4CCCCC4)c(O)c(OC)c3)C2=O)cc(CN2CCCCC2)c1O
5. O=C1c2c(n(Cc3ccccc3)c(=O)n2Cc2ccccc2)C(=O)N1Cc1ccccc1
6. CCSC1=C(C)N(C=NC(C)(C)C)CC1
7. CC(=O)O[C@]12CCCC1C1(O)C(O)CCCC12 (stereo partly drawn)

1. > 100 µM
2. 41.6 µM
3. > 100 µM
4. 19.6 µM
5. > 100 µM
6. > 100 µM
7. > 100 µM

Hi! Can you tell me TGI for each of these molecules?
1. COc1cc(CC2c3cc(OC)c(OC)cc3CCN2C)c(Oc2cc3c(cc2OC)-c2c(O)c(OC)cc4c2C(C3)N(C)CC4)cc1OC (stereo not drawn)
2. C/C(=N\NC(N)=S)C(CN(CC(C)C)CC(C)C)C(=O)Nc1ccc(C)cc1C (stereo not drawn)
3. C=CCNC(=O)NC1=CSC2=NC(=O)C3(NN12)c1ccccc1-c1ccccc13
4. COc1ccc(C(=O)c2cc3c(OC)c(OC)c(OC)cc3[nH]2)cc1
5. O=C(N/N=C/c1ccc([N+](=O)[O-])cc1)c1ccc2nc(-c3ccc(Cl)cc3)[nH]c2c1

["53.8 µM", "> 100 µM", "> 10 µM", "> 100 µM", "5 µM"]

Would you mind giving TGI for every molecule in the list below?
1. NC(N)=NNC(=O)CCCCCCCC(=O)NN=C(N)N
2. COC(=O)C1(F)C(=O)NC(=O)NC1O (stereo not drawn)

["> 100 µM", "> 100 µM"]

Give TGI for each listed item.
1. NC1=NC(c2ccc(Cl)cc2)C2=C(N1)/C(=C/c1ccc(Cl)cc1)CCC2 (stereo not drawn)
2. CC(C)c1ccc(/C=C2\CSCC3=C2NC(=S)NC3c2ccc(C(C)C)cc2)cc1 (stereo not drawn)
3. Cc1ccc(N2CCc3c(C)c(C#N)c4nc5ccccc5n4c32)cc1
4. O=C(O)c1cc2cc(OCc3ccccc3)c(OCc3ccccc3)cc2[nH]1
5. Cc1cn(CC2=NCC(C)(C)N2)c(=O)[nH]c1=O
6. CC(C)(C)C1(COC(=O)c2ccc(N)cc2)COC1
7. CCOC(=O)/C=C(/C(=O)OCC)n1cc(C)c(=O)n(Cc2cn(COCCOC(C)=O)nn2)c1=O
8. O=[N+]([O-])c1ccc(N=Nc2c(O)c(S(=O)(=O)O)cc3cc(S(=O)(=O)O)ccc23)cc1

50.8 µM
> 100 µM
> 100 µM
72.6 µM
> 100 µM
> 100 µM
23.7 µM
> 100 µM

Fill in: TGI of `O=c1cc(-c2ccccc2)[nH]n1-c1nc2ccccc2[nH]1` is ___
> 100 µM
